# EXPERIMENT_NOTES: Selectivity for HCV NS4A-tethered single chain NS3 serine protease over human neutrophil elastase
Could you please report measured Ratio for the items listed next?
Answers are plain numbers.

MOLECULE	REPORTED_RESULT
C=CCNC(=O)C(=O)C(CCC)NC(=O)[C@@H]1[C@@H]2[C@H](CN1C(=O)[C@@H](NC(=O)N[C@@H](CN1CCCOC1=O)C(C)(C)C)C(C)(C)C)C2(C)C (some centres undefined)	100
C=CCNC(=O)C(=O)C(CCC)NC(=O)[C@@H]1[C@@H]2[C@H](CN1C(=O)[C@@H](NC(=O)N[C@@H](CN(C)C(C)=O)C(C)(C)C)C(C)(C)C)C2(C)C (some centres undefined)	150
C#CCCC(NC(=O)[C@@H]1[C@@H]2[C@H](CN1C(=O)[C@@H](NC(=O)N[C@@H](CN1CCC(C)(C)CC1=O)C(C)(C)C)C(C)(C)C)C2(C)C)C(=O)C(=O)NCC=C (some centres undefined)	210

Moving on to another molecule below.
Entry C=CCNC(=O)C(=O)C(CCC)NC(=O)[C@@H]1[C@@H]2[C@H](CN1C(=O)[C@@H](NC(=O)N[C@@H](CN(C)C(=O)C(F)(F)F)C(C)(C)C)C(C)(C)C)C2(C)C (some centres undefined) : reported Ratio = ? 75
